Entry source: patent US20210253718A1

system-under-test: T1, FZD10 cysteine-rich domain (CRD), MYC-tagged and GPI-anchored on CHO cells (human, UniProt Q9ULW2 30-156, GPI anchor)
T1 construct: also called FZD10 CRD; CHO-myc-FZDGPI; not shown: MYC tag and GPI anchor signal
T1 sequence: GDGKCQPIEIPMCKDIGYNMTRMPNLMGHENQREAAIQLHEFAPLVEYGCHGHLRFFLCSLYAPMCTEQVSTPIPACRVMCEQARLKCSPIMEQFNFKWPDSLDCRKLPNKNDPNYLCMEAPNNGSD
test-method-notes: immunofluorescence, CHO-CRD cells
value-type: binding result

Fab-2934 (Fab, V domains shown, Fab; also called Fv-2934) VH: EVQLVESGGGLVQPGGSLRLSCAASGFNISYSYMHWVRQAPGKGLEWVASIYSSSGSTSYADSVKGRFTISADTSKNTAYLQMNSLRAEDTAVYYCARGAIDYWGQGTLVTVSS VL: DIQMTQSPSSLSASVGDRVTITCRASQSVSSAVAWYQQKPGKAPKLLIYSASSLYSGVPSRFSGSRSGTDFTLTISSLQPEDFATYYCQQWYHYGLITFGQGTKVEIK :: no binding
Fab-2930 (Fab, V domains shown, Fab; also called Fv-2930) VH: EVQLVESGGGLVQPGGSLRLSCAASGFNLSYYYIHWVRQAPGKGLEWVASIYPYSGSTSYADSVKGRFTISADTSKNTAYLQMNSLRAEDTAVYYCARGALDYWGQGTLVTVSS VL: DIQMTQSPSSLSASVGDRVTITCRASQSVSSAVAWYQQKPGKAPKLLIYSASSLYSGVPSRFSGSRSGTDFTLTISSLQPEDFATYYCQQWYGPYLITFGQGTKVEIK :: no binding
Fab-2901 (Fab, V domains shown, Fab; also called Fv-2901) VH: EVQLVESGGGLVQPGGSLRLSCAASGFNISYSYMHWVRQAPGKGLEWVASIYSYSSYTYYADSVKGRFTISADTSKNTAYLQMNSLRAEDTAVYYCARSWYYWSPSSGMDYWGQGTLVTVSS VL: DIQMTQSPSSLSASVGDRVTITCRASQSVSSAVAWYQQKPGKAPKLLIYSASSLYSGVPSRFSGSRSGTDFTLTISSLQPEDFATYYCQQGGFLITFGQGTKVEIK :: no binding
